Readings of Activity for the listed compounds
# Test system: HT-29
# Assay Details: Growth inhibition of human HT-29 cells assessed tumor cell growth at 10^-5 M
# Format: functional
# Set-up: scale not given: the % may be the effect or the level left
Provide only the numeric value, understood in %.

As a guide, the following entries are already answered.
Request: Value lookup for Activity; key = C=CCn1cc(/C=C2\C(=O)N(c3cccc(Cl)c3)N=C2C)c2ccccc21
Response: 105.44

Request: Value lookup for Activity; key = CC1=NN(c2cccc(Cl)c2)C(=O)/C1=C\c1c[nH]c2ccccc12
Response: 114.3

Request: Value lookup for Activity; key = O=C1/C(=C\c2coc3ccccc3c2=O)c2ccccc2N1c1c(Cl)cccc1Cl
Response: 47.62

New cases:
Request: Value lookup for Activity; key = CC1=NN(c2cccc(Cl)c2)C(=O)/C1=C\c1cn(Cc2ccccc2)c2ccccc12
Response: 93.03

###

# System: OVCAR-8
# Assay Details: Growth inhibition of human OVCAR8 cells assessed tumor cell growth at 10^-5 M
# Type: functional
# Design: scale not given: the % may be the effect or the level left
Measurement Label: Activity

As a guide, the following entries are already answered.
Request: Value lookup for Activity; key = O=C1C(=Cc2cn(Cc3ccccc3)c3ccccc23)C(=O)N(Cc2ccccc2)C(=O)N1Cc1ccccc1
Response: 83.5%

Request: Value lookup for Activity; key = O=C1Nc2ccccc2/C1=C/c1cn(C(=O)c2ccc(Cl)cc2)c2ccccc12
Response: 95%

Request: Value lookup for Activity; key = CC1=NN(c2cccc(Cl)c2)C(=O)/C1=C\c1cn(C(=O)c2c(Cl)cccc2Cl)c2ccccc12
Response: 89.79%

Request: Value lookup for Activity; key = C=CCn1cc(/C=C2\C(=O)N(c3c(Cl)cccc3Cl)c3ccccc32)c2ccccc21
Response: 90.7%

Request: Value lookup for Activity; key = O=C1/C(=C\c2cn(C(=O)c3ccc(Cl)cc3)c3ccccc23)c2ccccc2N1C(=O)c1ccc(Cl)cc1
Response: 78.6%

New cases:
Request: Value lookup for Activity; key = O=C1/C(=C\c2cn(C(=O)c3ccccc3)c3ccccc23)c2ccccc2N1c1c(Cl)cccc1Cl
Response: 113.1%

Request: Value lookup for Activity; key = CC1=NN(c2cccc(Cl)c2)C(=O)/C1=C\c1cn(C(=O)c2ccc(Cl)cc2)c2ccccc12
Response: 98.63%

Request: Value lookup for Activity; key = Cc1ccc(S(=O)(=O)n2cc(/C=C3\C(=O)Nc4ccccc43)c3ccccc32)cc1
Response: 91.2%

Request: Value lookup for Activity; key = C=CCn1cc(/C=C2\C(=O)N(c3cccc(Cl)c3)N=C2C)c2ccccc21
Response: 88.73%

Request: Value lookup for Activity; key = CC1=NN(c2cccc(Cl)c2)C(=O)/C1=C\c1c[nH]c2ccccc12
Response: 107.69%

Request: Value lookup for Activity; key = Cc1ccc(S(=O)(=O)N2C(=O)/C(=C\c3cn(S(=O)(=O)c4ccc(C)cc4)c4ccccc34)c3ccccc32)cc1
Response: 76%

Request: Value lookup for Activity; key = Cc1ccc(S(=O)(=O)n2cc(/C=C3\C(=O)N(c4c(Cl)cccc4Cl)c4ccccc43)c3ccccc32)cc1
Response: 96.7%

Request: Value lookup for Activity; key = O=C1/C(=C\c2cn(Cc3ccccc3)c3ccccc23)c2ccccc2N1Cc1ccccc1
Response: 88.9%

Request: Value lookup for Activity; key = CC1=NN(c2cccc(Cl)c2)C(=O)/C1=C\c1c(O)ccc2ccccc12
Response: 22.34%

Request: Value lookup for Activity; key = CC1=NN(c2cccc(Cl)c2)C(=O)/C1=C\C=C\c1ccccc1
Response: 0.37%

###

# Test system: CCRF-CEM
# Assay Details: Growth inhibition of human CCRF-CEM cells
# Type: functional
Measurement Label: GI50 (µM)
Provide only the numeric value, understood in µM.

As a guide, the following entries are already answered.
Request: Value lookup for GI50; key = CC1=NN(c2cccc(Cl)c2)C(=O)/C1=C\C=C\c1ccccc1
Response: 3.1

Request: Value lookup for GI50; key = O=C1/C(=C\c2coc3ccccc3c2=O)c2ccccc2N1c1c(Cl)cccc1Cl
Response: 2

Request: Value lookup for GI50; key = O=C1/C(=C\c2ccccn2)c2ccccc2N1c1c(Cl)cccc1Cl
Response: 3.2

Request: Value lookup for GI50; key = CC1=NN(c2cccc(Cl)c2)C(=O)/C1=C\c1c(O)ccc2ccccc12
Response: 97.7

With those in mind, consider the next molecule.
Request: Value lookup for GI50; key = O=C1Nc2ccccc2/C1=C/c1cn(C(=O)c2c(Cl)cccc2Cl)c2ccccc12
Response: 0.34

###

# Tested on: PC-3
# Assay Details: Growth inhibition of human PC3 cells assessed tumor cell growth at 10^-5 M
# Assay type: functional
# Design: scale not given: the % may be the effect or the level left
Readings of Activity for the listed compounds
Provide only the numeric value, understood in %.

Request: Value lookup for Activity; key = CC1=NN(c2cccc(Cl)c2)C(=O)/C1=C\c1cn(C(=O)c2ccc(Cl)cc2)c2ccccc12
Response: 95.29

With those in mind, consider the next compound.
Request: Value lookup for Activity; key = CC1=NN(c2cccc(Cl)c2)C(=O)/C1=C\C=C\c1ccccc1
Response: 45.45

###

# System: PC-3
# Assay Details: Growth inhibition of human PC3 cells assessed tumor cell growth at 10^-5 M
# Type: functional
# Set-up: scale not given: the % may be the effect or the level left
Consider the cut-off 80%. If the recorded Activity is strictly smaller, the label is class 1; if not, the label is class 0.

Request: Given the entry CC1=NN(c2cccc(Cl)c2)C(=O)/C1=C\c1cn(C(=O)c2c(Cl)cccc2Cl)c2ccccc12 , would its reported Activity be below 80%?
Response: class 0

New cases:
Request: Given the entry C=CCn1cc(/C=C2\C(=O)N(c3cccc(Cl)c3)N=C2C)c2ccccc21 , would its reported Activity be below 80%?
Response: class 0

Request: Given the entry O=C1Nc2ccccc2/C1=C/c1cn(C(=O)c2ccc(Cl)cc2)c2ccccc12 , would its reported Activity be below 80%?
Response: class 0

Request: Given the entry Cc1ccc(S(=O)(=O)n2cc(/C=C3\C(=O)N(c4c(Cl)cccc4Cl)c4ccccc43)c3ccccc32)cc1 , would its reported Activity be below 80%?
Response: class 1

###

# Test system: HCC 2998
# Assay Details: Growth inhibition of human HCC2998 cells assessed tumor cell growth at 10^-5 M
# Format: functional
# Parameters: scale not given: the % may be the effect or the level left
Measurement Label: Activity (%)
Provide only the numeric value, understood in %.

As a guide, the following entries are already answered.
Request: Value lookup for Activity; key = CC1=NN(c2cccc(Cl)c2)C(=O)/C1=C\c1c[nH]c2ccccc12
Response: 88.48

Request: Value lookup for Activity; key = O=C1/C(=C\c2ccccn2)c2ccccc2N1c1c(Cl)cccc1Cl
Response: -82.08

Request: Value lookup for Activity; key = O=C1/C(=C\c2cn(C(=O)c3c(Cl)cccc3Cl)c3ccccc23)c2ccccc2N1C(=O)c1c(Cl)cccc1Cl
Response: 116

Request: Value lookup for Activity; key = O=C1/C(=C\c2cn(C(=O)c3ccccc3)c3ccccc23)c2ccccc2N1c1c(Cl)cccc1Cl
Response: 101.6

Request: Value lookup for Activity; key = O=C1/C(=C\c2coc3ccccc3c2=O)c2ccccc2N1c1c(Cl)cccc1Cl
Response: 53

New cases:
Request: Value lookup for Activity; key = CC1=NN(c2cccc(Cl)c2)C(=O)/C1=C\c1coc2ccccc2c1=O
Response: 94.86

Request: Value lookup for Activity; key = CC1=NN(c2cccc(Cl)c2)C(=O)/C1=C\c1ccccn1
Response: 120.72

Request: Value lookup for Activity; key = CC1=NN(c2cccc(Cl)c2)C(=O)/C1=C\c1cn(C(=O)c2c(Cl)cccc2Cl)c2ccccc12
Response: 87.28

Request: Value lookup for Activity; key = CC1=NN(c2cccc(Cl)c2)C(=O)/C1=C\C=C\c1ccccc1
Response: 30.87

Request: Value lookup for Activity; key = CC1=NN(c2cccc(Cl)c2)C(=O)/C1=C\c1cn(C(=O)c2ccc(Cl)cc2)c2ccccc12
Response: 108.88

###

Readings of Activity for the listed compounds
# System: 786-0
# Assay Details: Growth inhibition of human 786-0 cells assessed tumor cell growth at 10^-5 M
# Assay type: functional
# Parameters: scale not given: the % may be the effect or the level left
Provide only the numeric value, understood in %.

As a guide, the following entries are already answered.
Request: Value lookup for Activity; key = CC1=NN(c2cccc(Cl)c2)C(=O)/C1=C\c1c(O)ccc2ccccc12
Response: -46.85

Request: Value lookup for Activity; key = O=C1/C(=C\c2cn(C(=O)c3c(Cl)cccc3Cl)c3ccccc23)c2ccccc2N1C(=O)c1c(Cl)cccc1Cl
Response: 100

Request: Value lookup for Activity; key = C#CCN1C(=O)/C(=C\c2cn(CC#C)c3ccccc23)c2ccccc21
Response: 109

Request: Value lookup for Activity; key = Cc1ccc(S(=O)(=O)n2cc(/C=C3\C(=O)Nc4ccccc43)c3ccccc32)cc1
Response: 99.7

Request: Value lookup for Activity; key = CC1=NN(c2cccc(Cl)c2)C(=O)/C1=C\c1coc2ccccc2c1=O
Response: 77.33

New cases:
Request: Value lookup for Activity; key = CC1=NN(c2cccc(Cl)c2)C(=O)/C1=C\c1cn(Cc2ccccc2)c2ccccc12
Response: 100.84

Request: Value lookup for Activity; key = C=CCn1cc(/C=C2\C(=O)N(c3cccc(Cl)c3)N=C2C)c2ccccc21
Response: 115.97

Request: Value lookup for Activity; key = CC1=NN(c2cccc(Cl)c2)C(=O)/C1=C\c1cn(C(=O)c2c(Cl)cccc2Cl)c2ccccc12
Response: 101.2
